experimental endpoint: MIC

Specify the recorded MIC for CC(C)CCC(=O)c1c(O)cc(O)c2c1OC(C)(C)CC2 [Compound 31] , system: Tr. MENTAGROPHYTES.
6 µg/mL

Specify the recorded MIC for CCCCCCCC(=O)c1c(O)cc(O)c(CC=C(C)C)c1O [Compound 11] , system: Tr. MENTAGROPHYTES.
100 µg/mL

Specify the recorded MIC for CCCC(=O)c1c(O)c2c(c(C(=O)CCC)c1O)OC(C)C2 (stereo not shown) [Compound 37] , system: Tr. MENTAGROPHYTES.
> 100 µg/mL

Specify the recorded MIC for C=CCc1c(O)cc(O)c(C(=O)Cc2ccc(Cl)cc2)c1O [Compound 23] , system: Tr. MENTAGROPHYTES.
13 µg/mL

Specify the recorded MIC for CCCC(=O)c1c(O)cc(O)c2c1OC(C)(C)CC2 [Compound 30] , system: Tr. MENTAGROPHYTES.
13 µg/mL

Specify the recorded MIC for CC(C)=CCc1c(O)cc(O)c(C(=O)C2CCCC2)c1O [Compound 9] , system: Tr. MENTAGROPHYTES.
6.2 µg/mL

Specify the recorded MIC for C=CCc1c(O)cc(O)c(C(=O)CCC(C)C)c1O [Compound 19] , system: Tr. MENTAGROPHYTES.
13 µg/mL

Specify the recorded MIC for CC(C)=CCc1c(O)cc(O)c(C(=O)Cc2ccc(Cl)cc2)c1O [Compound 14] , system: Tr. MENTAGROPHYTES.
100 µg/mL

Specify the recorded MIC for CC(C)=CCc1c(O)cc(O)c(C(=O)Cc2ccccc2)c1O [Compound 6] , system: Tr. MENTAGROPHYTES.
100 µg/mL

Specify the recorded MIC for CCCCC(=O)c1c(O)cc(O)c(CC=C(C)C)c1O [Compound 4] , system: Tr. MENTAGROPHYTES.
13 µg/mL

Specify the recorded MIC for C=CCc1c(O)cc(O)c(C(=O)CCCCC)c1O [Compound 18] , system: Tr. MENTAGROPHYTES.
6 µg/mL

Specify the recorded MIC for CCCCCC(=O)c1c(O)cc(O)c(CC=C(C)C)c1O [Compound 5] , system: Tr. MENTAGROPHYTES.
6 µg/mL

Specify the recorded MIC for CCCCCCCCC(=O)c1c(O)cc(O)c2c1OC(C)(C)CC2 [Compound 32] , system: Tr. MENTAGROPHYTES.
> 100 µg/mL

Specify the recorded MIC for C=CCc1c(O)cc(O)c(C(=O)CC)c1O [Compound 15] , system: Tr. MENTAGROPHYTES.
25 µg/mL

Specify the recorded MIC for CC(C)CCC(=O)c1c(O)cc(O)c(Cc2ccccc2)c1O [Compound 25, 2-Isocaproyl-4-benzylphloroglucinol] , system: Tr. MENTAGROPHYTES.
3 µg/mL

Specify the recorded MIC for CCCC(=O)c1c(O)cc(O)c(Cc2ccccc2)c1O [Compound 24, 2-Butyryl-4-benzylphloroglucinol] , system: Tr. MENTAGROPHYTES.
13 µg/mL

Specify the recorded MIC for CC(C)=CCc1c(O)cc(O)c(C(=O)C2CCCCC2)c1O [Compound 8] , system: Tr. MENTAGROPHYTES.
6 µg/mL

Specify the recorded MIC for CCCC(=O)c1c(O)cc(O)c(C(=O)CCC)c1O [Compound 1, 2,4-Dibutyrylphloroglucinol] , system: Tr. MENTAGROPHYTES.
6 µg/mL

Specify the recorded MIC for CCCCCCCCC(=O)c1c(O)cc2c(c1O)CCC(C)(C)O2 [Compound 34] , system: Tr. MENTAGROPHYTES.
> 100 µg/mL
